assay: Single-dose pharmacokinetics and brain concentrations, IV and IP, rats; assay type: in vivo, Sprague-Dawley rats; conditions: Sprague-Dawley, plasma; 1 mg/kg IV dose in rat; read-out: mean Vdss
PROPERTY_NAME: Vd (L/kg)

C#Cc1ccc2c(c1)C(c1ccccn1)=NCc1c(-c3cnco3)ncn1-2 [KRM-II-81]: 1.4

====

test: Pharmacokinetics and brain concentration after 10 mg/kg P.O. dose, rats; type: in vivo; settings: rat, blood, po; 10 mg/kg P.O., rats
PROPERTY_NAME: Tmax (h)

C#Cc1ccc2c(c1)C(c1ccccn1)=NCc1c(-c3cnco3)ncn1-2: 1.3

====

experiment: Single-dose pharmacokinetics and brain concentrations, IV and IP, rats; format: in vivo, Sprague-Dawley rats; settings: male, Sprague-Dawley, rat, brain/plasma (unbound); 10 mg/kg IP dose, 1 hour
PROPERTY_NAME: Kp uu at 1 h

C#Cc1ccc2c(c1)C(c1ccccn1)=NCc1c(-c3cnco3)ncn1-2: 0.53

The reported numbers originate from patent US10259815B2.
